# System: 422866-222-R5-J1-PDC complex spheroid viability
# Method description: Anticancer human tumor 422866-222-R5-J1-PDC patient-derived pancreatic adenocarcinoma cell line growth inhibition [POLQ]
# Condition details: compound alone; run of 12/05/2023
Observable: IC50

Field request: IC50 | item: Cc1cccc(N(C)C(=O)C2C(O)CCN2c2nc(C)cc(C(F)(F)F)c2C#N)c1 (configuration not stated) > 10 µM

Field request: IC50 | item: `Nc1ccc(C#CCN(C(=O)Cc2ncc(C(F)(F)F)cc2C(F)(F)F)c2ccc(F)cc2)nn1` > 10 µM

###

Hi there, I'd appreciate the recorded pIC50 for every entry that follows.
# System: 422866-222-R5-J1-PDC complex spheroid viability
# Method description: Anticancer human tumor 422866-222-R5-J1-PDC cell line growth inhibition [POLQ];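 further: spheroids exposed to compounds for one week before readout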
# Condition details: curve of first compound; second compound 0.316 µM
Entry type: numeric. Quantity: pIC50, the -log10 of concentration in molar units.

Return pIC50 measured with 422866-222-R5-J1-PDC complex spheroid viability given this molecule: C#Cc1c(F)ccc2cc(O)cc(-c3ncc4c(N5CC6CCC(C5)N6)nc(OCC56CCCN5CC(F)C6)nc4c3F)c12 (stereo not given) + COC1C(OC(N)=O)C(O)C(Oc2ccc3c(O)c(NC(=O)c4ccc(O)c(CC=C(C)C)c4)c(=O)oc3c2C)OC1(C)C 6.12

Return pIC50 measured with 422866-222-R5-J1-PDC complex spheroid viability given this molecule: COc1cc(C2c3cc4c(cc3C(OC3OC5COC(C)OC5C(O)C3O)C3COC(=O)C23)OCO4)cc(OC)c1O (stereo not given) + Cc1cccc(N(C)C(=O)C2C(O)CCN2c2nc(C)cc(C(F)(F)F)c2C#N)c1 5.87

Return pIC50 measured with 422866-222-R5-J1-PDC complex spheroid viability given this molecule: COc1cccc2c1C(=O)c1c(O)c3c(c(O)c1C2=O)CC(O)(C(=O)CO)CC3OC1CC(N)C(O)C(C)O1 (stereo not given) + COC1C(OC(N)=O)C(O)C(Oc2ccc3c(O)c(NC(=O)c4ccc(O)c(CC=C(C)C)c4)c(=O)oc3c2C)OC1(C)C 6.63

Return pIC50 measured with 422866-222-R5-J1-PDC complex spheroid viability given this molecule: COc1cccc2c1C(=O)c1c(O)c3c(c(O)c1C2=O)CC(O)(C(=O)CO)CC3OC1CC(N)C(O)C(C)O1 (stereo not given) + Nc1ccc(C#CCN(C(=O)Cc2ncc(C(F)(F)F)cc2C(F)(F)F)c2ccc(F)cc2)nn1 7.17

Return pIC50 measured with 422866-222-R5-J1-PDC complex spheroid viability given this molecule: CC1COCCN1c1cc(C2(S(C)(=N)=O)CC2)nc(-c2ccnc3[nH]ccc23)n1 (stereo not given) + Cc1cccc(N(C)C(=O)C2C(O)CCN2c2nc(C)cc(C(F)(F)F)c2C#N)c1 5.47

Return pIC50 measured with 422866-222-R5-J1-PDC complex spheroid viability given this molecule: Nc1ccn(C2OC(CO)C(O)C2(F)F)c(=O)n1 (stereo not given) + Nc1ccc(C#CCN(C(=O)Cc2ncc(C(F)(F)F)cc2C(F)(F)F)c2ccc(F)cc2)nn1 7.14

Return pIC50 measured with 422866-222-R5-J1-PDC complex spheroid viability given this molecule: C=CCn1c(=O)c2cnc(Nc3ccc(N4CCN(C)CC4)cc3)nc2n1-c1cccc(C(C)(C)O)n1 + Nc1ccc(C#CCN(C(=O)Cc2ncc(C(F)(F)F)cc2C(F)(F)F)c2ccc(F)cc2)nn1 6.60

Return pIC50 measured with 422866-222-R5-J1-PDC complex spheroid viability given this molecule: COc1ccc([C@@H](O)c2cc(-c3ncnc4cc(N5CCOCC5)ccc34)c(F)cc2Cl)nn1 + Cc1cccc(N(C)C(=O)C2C(O)CCN2c2nc(C)cc(C(F)(F)F)c2C#N)c1 5.62
